molecular target: full-length human PRMT6 (Flag- and His-tagged) (Homo sapiens, UniProt Q96LA8); assay: PRMT6 Biochemical Assay (3H-SAM Flashplate, peptide substrate); settings: single experiment or average of multiple experiments; read-out: Biochemical IC50 PRMT6
Sequence (Q96LA8 with tags, fused parts or gaps): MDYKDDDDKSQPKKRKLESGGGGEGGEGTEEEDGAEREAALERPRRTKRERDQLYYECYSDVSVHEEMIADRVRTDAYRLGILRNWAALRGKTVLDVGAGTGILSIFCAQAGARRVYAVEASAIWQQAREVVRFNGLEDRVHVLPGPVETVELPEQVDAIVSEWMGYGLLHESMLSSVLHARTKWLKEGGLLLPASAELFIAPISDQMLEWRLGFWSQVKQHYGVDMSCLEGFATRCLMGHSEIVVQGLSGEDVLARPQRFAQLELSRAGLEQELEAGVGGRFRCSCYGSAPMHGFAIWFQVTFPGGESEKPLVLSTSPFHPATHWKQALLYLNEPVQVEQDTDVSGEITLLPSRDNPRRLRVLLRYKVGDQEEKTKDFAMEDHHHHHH
measuredQuantity: IC50 (nM)
Provide only the numeric value, understood in nM.

CNCCN(C)Cc1c[nH]nc1C1CCC(COC)(COC)CC1 = 69.4
CC1CCC(c2c[nH]nc2CN(C)CCN)CC1 (stereo not drawn) = 10
CNCCN(C)Cc1c[nH]nc1C1CCC(F)(F)CC1 = 20.5
CCC(=O)N(CCOc1ccccc1)[C@H]1CC[C@@H](c2n[nH]cc2CN(C)CCNC)CC1 = 18.4
CCN1CC2(CCC(c3n[nH]cc3CN(C)CCNC)CC2)N(C)C1=O (stereo not drawn) = 44.3

Form: Entry = CNCCN(C)Cc1c[nH]nc1C1CCC(COC)CC1 (stereo not drawn) | System = full-length human PRMT6 (Flag- and His-tagged) (Homo sapiens, UniProt Q96LA8) | IC50 = ____ 38
